- system: Kras and SOS1 (biotin-tagged human Kras loaded with GDP, His-tagged human SOS1) (Homo sapiens, UniProt P01116, G12D)
- Construct: made in house; host or cells: E. coli (stated for Kras only)
- Sequence (P01116 1-188 isoform P01116-2 G12D): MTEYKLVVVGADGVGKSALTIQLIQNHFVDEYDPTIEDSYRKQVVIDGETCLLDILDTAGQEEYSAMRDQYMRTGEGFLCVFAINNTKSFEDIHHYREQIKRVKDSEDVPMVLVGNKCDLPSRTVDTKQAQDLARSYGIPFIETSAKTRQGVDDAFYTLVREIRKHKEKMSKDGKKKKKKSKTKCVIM
- method: Protein-protein interaction inhibition between Kras and SOS1 (KrasGl2D-SOS PPI) using AlphaScreen
- Assay type: binding
- experimental conditions: AlphaScreen; biotin-tagged human Kras loaded with GDP, His-tagged human SOS1; read-out: KRAS G12D-SOS PPI IC50
Positions of bridges follow the written chain, without caps; N, C: chain ends. Non-standard residues stand in square brackets, D forms with d. Residues, ends and D or L forms follow the SMILES beside them. *: point of attachment. hPhe(3-Cl-4-CF3) = N[C@@H](CCc1ccc(C(F)(F)F)c(Cl)c1)C(=O)O; NMePhe(4-Cl) = CN[C@@H](Cc1ccc(Cl)cc1)C(=O)O; NMePhe(4-Me) = CN[C@@H](Cc1ccc(C)cc1)C(=O)O; NMePhe(2-F) = CN[C@@H](Cc1ccccc1F)C(=O)O; NMeGly(cPent) = CN[C@H](C(=O)O)C1CCCC1; Phe(3-I) = N[C@@H](Cc1cccc(I)c1)C(=O)O; NMeGly(cBu) = CN[C@H](C(=O)O)C1CCC1; NMeCha = CN[C@@H](CC1CCCCC1)C(=O)O; NMeChg = CN[C@H](C(=O)O)C1CCCCC1; NMeD = CN[C@@H](CC(=O)O)C(=O)O; NMeL = CN[C@@H](CC(C)C)C(=O)O; NMeV = CN[C@H](C(=O)O)C(C)C; d(β3hA) = C[C@@H](N)CC(=O)O; NMeA = CN[C@@H](C)C(=O)O; Nle = CCCC[C@H](N)C(=O)O; Piperidide = C1CCN(*)CC1; Ac5c = NC1(C(=O)O)CCCC1; Aze = O=C(O)[C@@H]1CCN1; Ac4c = NC1(C(=O)O)CCC1; Sar = CNCC(=O)O
measurement kind: IC50 (nM)
Just the number please, in nM, no unit attached.

Q: Value lookup for IC50; key = CCCC[C@@H]1NC(=O)[C@H](Cc2cccc(I)c2)NC(=O)CN(C)C(=O)[C@H](Cc2ccc(Cl)cc2)N(C)C(=O)CN(C)C(=O)CN(C)C(=O)[C@H]([C@@H](C)CC)NC(=O)[C@H](CC(C)C)N(C)C(=O)C[C@@H](C(=O)N2CCCCC2)N(C)C(=O)[C@H](CC(C)C)NC(=O)[C@H](Cc2ccccc2F)N(C)C1=O [Compound 1035] ([NMeL]I[Sar][Sar][NMePhe(4-Cl)][Sar][Phe(3-I)][Nle][NMePhe(2-F)]L[NMeD]-Piperidide; lactam N-11)
A: 11

Q: Reported IC50, compound CC[C@H](C)[C@@H]1NC(=O)[C@H](CC(C)C)N(C)C(=O)C[C@@H](C)NC(=O)[C@H](C2CCC2)N(C)C(=O)C2(CCCC2)NC(=O)[C@@H]2CCCN2C(=O)[C@H](CCc2ccc(C(F)(F)F)c(Cl)c2)NC(=O)CN(C)C(=O)[C@H](CC2CCCCC2)N(C)C(=O)CN(C)C(=O)CN(C)C1=O [Compound 183] (cyclo([Ac5c][NMeGly(cBu)][d(β3hA)][NMeL]I[Sar][Sar][NMeCha][Sar][hPhe(3-Cl-4-CF3)]P)) : ____
A: 26

Q: Consider the compound shown here: CC[C@H](C)[C@@H]1NC(=O)[C@H](C)N(C)C(=O)C[C@@H](C)NC(=O)[C@H](C2CCCC2)N(C)C(=O)C2(CCC2)NC(=O)[C@@H]2CCCN2C(=O)[C@H](CCc2ccc(C(F)(F)F)c(Cl)c2)NC(=O)CN(C)C(=O)[C@H](Cc2ccc(C)cc2)N(C)C(=O)CN(C)C(=O)CN(C)C1=O [Compound 1466] (cyclo([Ac4c][NMeGly(cPent)][d(β3hA)][NMeA]I[Sar][Sar][NMePhe(4-Me)][Sar][hPhe(3-Cl-4-CF3)]P)) What is its recorded IC50?
A: 1

Q: I would be grateful if you could share the reported IC50 for CC[C@H](C)[C@@H]1NC(=O)[C@H](CC(C)C)N(C)C(=O)C[C@@H](C)NC(=O)[C@H](C2CCCC2)N(C)C(=O)C2(CCCC2)NC(=O)[C@@H](C)NC(=O)[C@H](CCc2ccc(C(F)(F)F)c(Cl)c2)NC(=O)CN(C)C(=O)[C@H](Cc2ccc(C)cc2)N(C)C(=O)[C@@H]2CCN2C(=O)[C@H](C)N(C)C1=O [Compound 1328] (cyclo([Ac5c][NMeGly(cPent)][d(β3hA)][NMeL]I[NMeA][Aze][NMePhe(4-Me)][Sar][hPhe(3-Cl-4-CF3)][dA])) .
A: 220

Q: What does the record list as IC50 for CC[C@H](C)[C@@H]1NC(=O)[C@H](C2CCCCC2)N(C)C(=O)C[C@@H](C)NC(=O)[C@H](C(C)C)N(C)C(=O)C2(CCCC2)NC(=O)[C@@H]2CCCN2C(=O)[C@H](CCc2ccc(C(F)(F)F)c(Cl)c2)NC(=O)CN(C)C(=O)[C@H](CC2CCCCC2)N(C)C(=O)CN(C)C(=O)CN(C)C1=O [Compound 456] (cyclo([Ac5c][NMeV][d(β3hA)][NMeChg]I[Sar][Sar][NMeCha][Sar][hPhe(3-Cl-4-CF3)]P)) ?
A: 34
